Assay system: DNA-PK phosphorylation at serine 2056 (Homo sapiens (Human), UniProt P78527)
Procedure summary: DNA-PK phosphorylation at serine 2056 (cellular), bleomycin-treated HCT116 cells, ELISA
Type: cell-based
Conditions used: cellular; HCT116 cells, 10 μM bleomycin, six hours; read-out: IC50 pDNA-PK
Procedure: HCT116 cells were cultivated at 37° C. and 10% CO2 in MEM alpha medium with 10% of foetal calf serum and 2 mM glutamine. The cells were detached from the base of the culture vessels with the aid of trypsin/EDTA, centrifuged off in centrifuge tubes, taken up in fresh medium, and the cell density was determined. […] The development of the enzymatic reaction was carried out with the aid of a chemiluminescent reagent, the chemiluminescence was measured with the aid of a Mithras LB940. […]
pIC50: −log10 of the molar value.
Reported property: pIC50

Sample records with pIC50:
>  <Molecule>
O=c1ccc(C(O)c2ccc(F)c(-c3ncnc4cc(N5CCOCC5)ccc34)c2)n[nH]1 (stereo not shown)

>  <Assay system>
DNA-PK phosphorylation at serine 2056 (Homo sapiens (Human), UniProt P78527)

>  <pIC50>
5.30 to 6.30

$$$$
>  <Molecule>
OC(c1ccc(F)c(-c2ncnc3cc(N4CCOCC4)ccc23)c1)c1ncccc1Cl (stereo not shown)

>  <Assay system>
DNA-PK phosphorylation at serine 2056 (Homo sapiens (Human), UniProt P78527)

>  <pIC50>
> 6.30

$$$$
>  <Molecule>
OC(c1ccc(F)c(-c2ncnc3cc(N4CCOCC4)ccc23)c1)c1nccnc1Cl (stereo not shown)

>  <Assay system>
DNA-PK phosphorylation at serine 2056 (Homo sapiens (Human), UniProt P78527)

>  <pIC50>
> 6.30

$$$$

Let's switch to this molecule now.
[in] Please look at COc1ccc(C(O)c2cc(-c3ncnc4cc(N5CCOCC5)sc34)c(F)cc2Cl)nn1 (single isomer, unassigned) [Example 127] and tell me its recorded pIC50 on DNA-PK phosphorylation at serine 2056 (Homo sapiens (Human), UniProt P78527).
[out] 5.00 to 5.30

* * *

Assay system: Kv11.1 (hERG) (Homo sapiens (Human), UniProt Q12809)
Sequence (Q12809 whole entry): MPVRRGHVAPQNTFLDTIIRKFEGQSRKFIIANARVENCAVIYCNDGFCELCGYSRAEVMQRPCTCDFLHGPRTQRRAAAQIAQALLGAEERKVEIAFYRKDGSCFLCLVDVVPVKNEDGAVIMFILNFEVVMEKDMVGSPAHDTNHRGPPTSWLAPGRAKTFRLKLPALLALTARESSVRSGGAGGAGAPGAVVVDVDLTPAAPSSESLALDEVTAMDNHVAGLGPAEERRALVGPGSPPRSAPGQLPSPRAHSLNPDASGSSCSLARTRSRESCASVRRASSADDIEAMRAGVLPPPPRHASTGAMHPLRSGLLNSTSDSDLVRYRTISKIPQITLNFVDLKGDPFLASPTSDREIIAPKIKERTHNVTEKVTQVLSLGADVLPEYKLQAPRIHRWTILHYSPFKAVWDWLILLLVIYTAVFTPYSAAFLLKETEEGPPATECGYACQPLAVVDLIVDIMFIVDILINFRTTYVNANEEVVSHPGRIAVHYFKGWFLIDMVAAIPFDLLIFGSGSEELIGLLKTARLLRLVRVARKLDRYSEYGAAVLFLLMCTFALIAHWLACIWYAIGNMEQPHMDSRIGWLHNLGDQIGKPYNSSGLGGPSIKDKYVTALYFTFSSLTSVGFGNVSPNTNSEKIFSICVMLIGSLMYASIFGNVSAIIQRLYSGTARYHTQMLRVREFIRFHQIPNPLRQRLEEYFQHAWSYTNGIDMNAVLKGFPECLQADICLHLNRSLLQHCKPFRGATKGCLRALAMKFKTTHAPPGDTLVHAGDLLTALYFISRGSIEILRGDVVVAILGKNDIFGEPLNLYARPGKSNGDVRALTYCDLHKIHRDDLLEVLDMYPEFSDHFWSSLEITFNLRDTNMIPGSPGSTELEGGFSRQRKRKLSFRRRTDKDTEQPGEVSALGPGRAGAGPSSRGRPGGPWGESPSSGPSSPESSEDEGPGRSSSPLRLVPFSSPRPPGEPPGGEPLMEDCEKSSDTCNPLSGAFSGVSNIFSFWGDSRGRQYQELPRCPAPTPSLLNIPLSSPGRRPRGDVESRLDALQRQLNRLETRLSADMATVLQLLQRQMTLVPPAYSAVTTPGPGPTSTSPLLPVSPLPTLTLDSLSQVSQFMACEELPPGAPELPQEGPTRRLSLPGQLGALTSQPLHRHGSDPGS
Procedure summary: Kv11.1 (hERG) ion channel activity (patch clamp assay), HEK293 cells transfected with hERG gene
Conditions used: Ki [Kv1.11 hERG], patch clamp, HEK293 transfected with hERG gene
Here the recorded Ki is given for each entry.

Sample records with Ki:
>  <Molecule>
COc1cc(Cl)nnc1C(O)c1cc(-c2ncnc3cc(N4CCOCC4)ccc23)c(F)cc1Cl (stereo not shown) [Example 8]

>  <Ki>
10 to 15 µM

$$$$
>  <Molecule>
N#Cc1ccc(C(O)c2cc(-c3ncnc4cc(N5CCOCC5)ccc34)c(F)cc2Cl)nn1 (stereo not shown) [Example 118]

>  <Ki>
15 to 25 µM

$$$$
>  <Molecule>
Nc1nccnc1C(O)c1cc(-c2ncnc3cc(N4CCOCC4)ccc23)c(F)cc1Cl (stereo not shown) [Example 117]

>  <Ki>
15 to 25 µM

$$$$
>  <Molecule>
Cn1nc(C(O)c2cc(-c3ncnc4cc(N5CCOCC5)ccc34)c(F)cc2Cl)ccc1=O (single isomer, unassigned) [Example 44]

>  <Ki>
15 to 25 µM

$$$$

[in] Read off the recorded Ki for CCOc1cnnc(C(O)c2ccc(F)c(-c3ncnc4cc(N5CCOCC5)ccc34)c2)c1 (stereo not shown) [Example 79]
[out] 15 to 25 µM

[in] Read off the recorded Ki for OC(c1ccc(OC2COC2)nn1)c1cc(-c2ncnc3cc(N4CCOCC4)ccc23)c(F)cc1Cl (stereo not shown) [Example 100]
[out] 10 to 15 µM

[in] Read off the recorded Ki for O=c1[nH]ccnc1C(O)c1ccc(F)c(-c2ncnc3cc(N4CCOCC4)ccc23)c1 (stereo not shown) [Example 5]
[out] 15 to 25 µM

* * *

Here the recorded IC50 is given for each entry.
Assay system: UniProtKB P78527
Procedure summary: DNA-PK assay (biochemical), flashplate 33P-ATP kinase assay
Conditions used: enzymatic; 5 μM ATP
Protocol: A) DNA-PK Assay (Biochemical) The kinase assay was carried out in streptavidin-coated […] microtitre flashplates. […] The reaction was stopped using 50 μl/well of 200 mM EDTA. After incubation for a further 30 min at room temperature, the liquid was removed. […] A nonspecific reaction (blank value) was determined using 10 μM of an innate kinase inhibitor. The radioactivity measurement was carried out using a TopCount. IC50 values were calculated in RS1.

Sample records with IC50:
>  <Compound>
COc1cnc(C(O)c2ccc(F)c(-c3ncnc4cc(N5CCOCC5)ccc34)c2)cn1 (centres unmarked) [Example 53]

>  <IC50>
3 to 7 nM

$$$$
>  <Compound>
OC(c1ccc(F)c(-c2ncnc3cc(N4CCOCC4)ccc23)c1)c1c(F)cncc1Cl (centres unmarked)

>  <IC50>
3 to 7 nM

$$$$

[in] Read off the recorded IC50 for CCOc1ccc(C(O)c2ccc(F)c(-c3ncnc4cc(N5CCOCC5)ccc34)c2)nn1 (centres unmarked)
[out] 7 to 30 nM

[in] Read off the recorded IC50 for COc1nccnc1C(O)c1ccc(F)c(-c2ncnc3cc(N4CCOCC4)ccc23)c1 (centres unmarked) [Example 16]
[out] 7 to 30 nM

[in] Read off the recorded IC50 for COc1nccnc1C(O)c1ccc(F)c(-c2ncnc3cc(N4CCOCC4)ccc23)c1 (centres unmarked) [Example 15]
[out] < 3 nM

[in] Read off the recorded IC50 for `Cc1nccnc1[C@H](O)c1cc(-c2ncnc3cc(N4CCOCC4)ccc23)c(F)cc1F`
[out] 3 to 7 nM

[in] Read off the recorded IC50 for COc1cc(Cl)nnc1C(O)c1ccc(F)c(-c2ncnc3cc(N4CCOCC4)ccc23)c1 (centres unmarked)
[out] 3 to 7 nM

[in] Read off the recorded IC50 for O=c1[nH]ccnc1C(O)c1ccc(F)c(-c2ncnc3cc(N4CCOCC4)ccc23)c1 (centres unmarked)
[out] > 30 nM

[in] Read off the recorded IC50 for N#Cc1ccc(C(O)c2cc(-c3ncnc4cc(N5CCOCC5)ccc34)c(F)cc2Cl)nn1 (centres unmarked)
[out] 3 to 7 nM

* * *

Here the recorded pIC50 is given for each entry.
Assay system: UniProt P78527
Procedure summary: DNA-PK phosphorylation at serine 2056 (cellular), bleomycin-treated HCT116 cells, ELISA
Type: cell-based
Conditions used: cellular; HCT116 cells, 10 μM bleomycin, six hours; read-out: IC50 pDNA-PK
pIC50: −log10 of the molar value.

[in] Please look at COc1ncc(Cl)nc1C(O)c1ccc(F)c(-c2ncnc3cc(N4CCOCC4)ccc23)c1 (stereo not shown) [Example 25] and tell me its recorded pIC50 on UniProt P78527.
[out] > 6.30

[in] Please look at Cc1nccnc1[C@@H](O)c1ccc(F)c(-c2ncnc3cc(N4CCOCC4)ccc23)c1 [Example 82] and tell me its recorded pIC50 on UniProt P78527.
[out] 5.30 to 6.30

[in] Please look at OC(c1ccn2nccc2n1)c1cc(-c2ncnc3cc(N4CCOCC4)ccc23)c(F)cc1Cl (stereo not shown) [Example 39] and tell me its recorded pIC50 on UniProt P78527.
[out] > 6.30

[in] Please look at COCCOc1ccc(C(O)c2cc(-c3ncnc4cc(N5CCOCC5)ccc34)c(F)cc2Cl)nn1 (stereo not shown) [Example 112] and tell me its recorded pIC50 on UniProt P78527.
[out] 5.30 to 6.30

[in] Please look at O=c1ccc(C(O)c2cc(-c3ncnc4cc(N5CCOCC5)ccc34)c(F)cc2Cl)n[nH]1 (stereo not shown) [Example 92] and tell me its recorded pIC50 on UniProt P78527.
[out] > 6.30

[in] Please look at OC(c1ccc(F)c(-c2ncnc3cc(N4CCOCC4)ccc23)c1)c1cncc(F)c1Cl (stereo not shown) [Example 2] and tell me its recorded pIC50 on UniProt P78527.
[out] > 6.30

[in] Please look at Cc1nccnc1C(O)c1cc(-c2ncnc3cc(N4CCOCC4)ccc23)c(F)cc1F (stereo not shown) [Example 86] and tell me its recorded pIC50 on UniProt P78527.
[out] > 6.30

[in] Please look at Cc1cnc(C)c(C(O)c2cc(-c3ncnc4cc(N5CCOCC5)ccc34)c(F)cc2F)n1 (stereo not shown) [Example 88] and tell me its recorded pIC50 on UniProt P78527.
[out] > 6.30

[in] Please look at CNC(=O)c1ccc(C(O)c2cc(-c3ncnc4cc(N5CCOCC5)ccc34)c(F)cc2Cl)nn1 (stereo not shown) [Example 43] and tell me its recorded pIC50 on UniProt P78527.
[out] 5.30 to 6.30

[in] Please look at COc1ccc([C@H](O)c2ccc(F)c(-c3ncnc4cc(N5CCOCC5)ccc34)c2)nn1 [Example 71] and tell me its recorded pIC50 on UniProt P78527.
[out] 5.30 to 6.30

[in] Please look at N#CCOc1ccc(C(O)c2cc(-c3ncnc4cc(N5CCOCC5)ccc34)c(F)cc2Cl)nn1 (stereo not shown) [Example 119] and tell me its recorded pIC50 on UniProt P78527.
[out] > 6.30

[in] Please look at OC(c1cnccn1)c1cc(-c2ncnc3cc(N4CCOCC4)ccc23)c(F)cc1Cl (stereo not shown) [Example 34] and tell me its recorded pIC50 on UniProt P78527.
[out] 5.00 to 5.30

[in] Please look at CC(C#N)Oc1ccc(C(O)c2cc(-c3ncnc4cc(N5CCOCC5)ccc34)c(F)cc2Cl)nn1 (stereo not shown) [Example 101] and tell me its recorded pIC50 on UniProt P78527.
[out] > 6.30

[in] Please look at CC(C)(C)Oc1nccnc1C(O)c1ccc(F)c(-c2ncnc3cc(N4CCOCC4)ccc23)c1 (stereo not shown) [Example 13] and tell me its recorded pIC50 on UniProt P78527.
[out] 4.52 to 5.00

[in] Please look at CC(C#N)Oc1ccc(C(O)c2cc(-c3ncnc4cc(N5CCOCC5)ccc34)c(F)cc2Cl)nn1 (single isomer, unassigned) [Example 104] and tell me its recorded pIC50 on UniProt P78527.
[out] 5.30 to 6.30

[in] Please look at OCCNc1nccnc1C(O)c1ccc(F)c(-c2ncnc3cc(N4CCOCC4)ccc23)c1 (stereo not shown) [Example 106] and tell me its recorded pIC50 on UniProt P78527.
[out] 5.00 to 5.30
